Sourced from patent US20190177284A1

Catalogue of IC50 readings, one per entry.
study.system: UniProtKB P46663
Sequence (P46663 whole entry): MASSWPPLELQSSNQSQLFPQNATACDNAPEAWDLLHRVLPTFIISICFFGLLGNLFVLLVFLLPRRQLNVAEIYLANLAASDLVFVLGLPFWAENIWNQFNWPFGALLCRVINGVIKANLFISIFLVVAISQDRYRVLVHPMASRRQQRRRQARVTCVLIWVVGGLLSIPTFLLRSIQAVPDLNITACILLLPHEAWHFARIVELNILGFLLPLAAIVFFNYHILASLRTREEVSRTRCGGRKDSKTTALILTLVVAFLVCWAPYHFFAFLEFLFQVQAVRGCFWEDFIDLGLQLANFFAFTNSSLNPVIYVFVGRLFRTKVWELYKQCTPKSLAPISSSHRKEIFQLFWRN
protocol.summary: Calcium flux Assay (FLIPR) with cells expressing human Bradykinin B1 receptor (hB1)
experimental.setup: absence of 0.1% BSA in assay buffer; CHO-K1 cell line expressing human B1 receptor; agonist Lys-(Des-Arg)-Bradykinin; read-out: hB1 free IC50

# molecule, IC50 / nM
data = [
    ("CC[C@@H](C)OC(=O)c1ccc(NC(=O)C2(c3ccc(OC(F)(F)F)cc3F)CC2)cc1-c1nnn[nH]1 [Example 26]", 3),
    ("O=C(O[C@H]1CCOC1)c1c(F)cc(NC(=O)C2(c3ccc(C(F)(F)F)cc3F)CC2)cc1-c1nnn[nH]1 [Example 62]", 2),
    ("O=C(OC1CCCC1)c1ccc(NC(=O)C2(c3ccc(F)c(F)c3)CC2)cc1-c1nnn[nH]1 [Example 4]", 59),
    ("CCC(C)OC(=O)c1ccc(NC(=O)C2(c3cccc(Cl)c3)CC2)cc1-c1nnn[nH]1 (racemic) [Example 3]", 10),
]
